assayed system: Peptide 2004 (…) (Mycobacterium tuberculosis)
Hi, to clarify the labels: True covers rank by relative ELISA signal across the dilution series (1 = highest) from 8 upward, False covers anything below 8.

- Antibody 5B7-1 (antibody, V domains shown) VH: QSVEESGGRLVTPGTPLTLTCTVSGFSLSDVTISWVRQAPGKGLKWTGIIGRRGRIRYADWAKGRFTISKTSTTVDLKITSPTTDDTATYFCARAYVSSDWNIYGMDLWGPGTLVTVSS VL: QVLTQTASPVSAPVGGTVTINCQASQSVYNNKNLAWYQQKLGQPPKLLIYEASKLASGVSSRFEGSGSGTQFALTISGVQCDDAATYYCQGEFDCSSADCFVFGGGTEVVVK: False
- Antibody 4G6-1 (antibody, V domains shown) VH: QSLEESGGRLVTPGTPLTLTCTVSGIDLSSNAMGWVRQAPGEGLQWIGSIYSSGNTYYASWARGRFAISRTSTTVDLKMTSLTAADTATYFCARLFNIWGPGTLVTVSS VL: ADIVVTQTPASVSADVGGTVTINCQASQSVYDNKNLAWFQQKPGQPPKQLIYGASTVASGVPSRFKGSGSGTQFTLTISDVQCDDAATYYCGGRDNDNIYDFGGGTEVVVK: True
- Antibody 3E9-1 (antibody, V domains shown) VH: QSLEESGGRLVTPGGSLTLTCTVSGIDLSSNAMGWVRQAPGEGLEWIGSIYASGNTYYASWAKGRFAISKTSTTVDLKMTSLTAADTATYFCARLFNIWGPGTLVTVSS VL: ADIVLTQTPASVSSVVGGTVTINCQASQSVFDNKNLSWFQQKPGQPPKQLIYGASTLDSGVPSRFKGSGSGTQFTLTISDMQCDDAATYYCGGRDSGNIYDFGGGTEVVVK: False
- Antibody 10G3-1 (antibody, V domains shown) VH: QSVEESGGRLVTPGTPLTLTCTASGFSLSDDAMSWVRQAPGKGLEWIGIIGRRGKTWYANWAKGRFTISKTSTTVDLKITSPTTEDTATYFCARGYVSSDWNIYGMDLWGPGTLVTVSA VL: QVLTQTPSPVSAAVGGTVTINCQASQSVYNNKNLAWYQQKSGQPPKLLIYEASKLASGVPSRFKGSGSGTQFTLTISGVQCDDAATYYCQGEFSCSSADCFTFGGGTEVVVK: False

The values you see were collected from patent US12649778.
